Target: T1, CD27 expressed on the cell surface (HT1080_CD27 cells) (human, UniProt P26842 20-260); further: test concentration or dose not given here
T1 sequence (looked up): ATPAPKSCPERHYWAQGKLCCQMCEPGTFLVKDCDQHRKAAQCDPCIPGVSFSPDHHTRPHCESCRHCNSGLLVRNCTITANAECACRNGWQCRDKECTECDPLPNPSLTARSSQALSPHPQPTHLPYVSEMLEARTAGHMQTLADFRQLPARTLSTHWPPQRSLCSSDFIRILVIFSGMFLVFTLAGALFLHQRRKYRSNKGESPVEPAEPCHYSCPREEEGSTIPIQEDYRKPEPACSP
Experiment: cell-based or functional assay
Label TRUE when IL-8 [abs. corr.] is strictly below 0.3 abs. corr.; otherwise label FALSE.

| BINDER | LABEL_CLASS |
| --- | --- |
| P018.S.04.A.C02 (antibody, V domains shown, V regions on human Ig constant parts; also called AB27_69) VH: QEQLVESGGDLVKPEGSLTLTCTASGFSFSSSYYMSWVRQAPGKGLEWIACIDTVDNYTYYASWAKGRFTISKTSSTTVSLQMTSLTAADTATYFCARERIAYNTDYFNLWGPGTLVTVSS VL: AQVLTQTPSPVSAAVGGTVTISCQSSQSLYNYNNLAWYQQKPGQPPKLLIYSVSNLASGVPSRFGGGGSGTQFTLTISDLQSADAATYYCQGYYSGAVYTFGGGTEVVVK | TRUE |
| P018.S.03.A.B02 (antibody, V domains shown, V regions on human Ig constant parts; also called AB27_42) VH: QSLEESGGRLVTPGTPLTLTCTASGFSLSSYDMNWVRQAPGEGLEWIGTITTNSDTYYASWAKGRFTISKTSTTVDLKITSPTTEDTATYFCARGYTTFTLWGQGTLVTVSS VL: DPVLTQTPSSASEPVGGTVTINCQASQNIYSNLAWYQQKPGQPPKLLIYGASTLESGVPSRFSGSGSGTQFTLTISDLESDDAATYYCQCTDYDSNYVVDFGGGTEVVVK | FALSE |
| P018.S.06.A.E04 (antibody, V domains shown, V regions on human Ig constant parts; also called AB27_106) VH: QEQLEESGGDLVQPEGSLTLTCTVSGFSFDSNYWICWVRQAPGKGPEWIACIMTGDGSIYYATWAKGRFTISKTSSTTVTLQMTSLTAADTATYFCARGYDGIHGGDNYGHVFNLWGPGTLVTVSS VL: AFELTQTPFSVSAVVGGTVTINCQASENIYTLLAWYQQKSGQPPKLLIYRASTLTSGVPSRFKGSGSGTQFTLTISDLESADAATYYCQGYYVDSGNTFGGGTEVVVK | FALSE |
| P018.S.07.A.B05 (antibody, V domains shown, V regions on human Ig constant parts; also called AB27_117) VH: QSLEESGGDLVKPGASLTLTCTASEFSFSNNYYICWVRQAPGKGLEWIACIYVHSGTTDYATWAKGRFTISRTSSTTVTLQMTSLTVADTATYFCARGRSGYYADAFDTWGPGTLVTVSS VL: ALDMTQTPSPVSAAVGGTVTINCQASQSVYNNNNLAWYQQKPGQPPKLLIYLASNLASGVPSRFKGSGSGTQFTLTISEIQSDDAATYYCQGTDSSSGWEHAFGGGTEVVVK | TRUE |
| P018.S.01.A.E04 (antibody, V domains shown, V regions on human Ig constant parts; also called AB27_16) VH: QEQLKESGGGLVTPGGTLTLTCTASGSDISNYGVSWVRQAPGKGLEWIGFINADGGGTWYASWVKGRFTISRTSTTVELKMTSLTTEHTATYFCATYGGGGGHNLWGPGTLVTVSS VL: AQVLTQTPSSVSAAVGGTVTINCQSSQSVYDNNALAWYQQKPGQPPKLLLYSASRLASGVPSRFKGSGSGTQFTLTISDLESDDAATYYCAAYYGSGDIFAFGGGTEVVVE | TRUE |
